Value source: PubChem BioAssay (NCI)

TGI values by entry
System: MDA-MB-468 breast
Protocol text: NCI tumour cell line growth inhibition, 48 h
Supply the numeric figure in µM, leaving out any unit text.

Example compounds with recorded TGI:
Compound	Readout	Readout value
Oc1ccc(/C=N\Nc2ccccn2)c(O)c1	TGI	8.56
Cc1ccc(C(CN(C)C)C(=O)c2ccccc2)cc1 (stereo not drawn)	TGI	3.61
NC(=O)c1cnc(N[C@@H]2CCCC[C@@H]2N)nc1Nc1cccc(-n2nccn2)c1	TGI	11.5

Continue with the compound presented below.
Lookup: What value of TGI has been reported for the following compound? OCc1cn(Cc2cccc(Cl)c2)c2ccccc12
Found: 0.0333

###

Test system: MDA-MB-468 breast
Protocol text: NCI tumour cell line growth inhibition, 48 h
Readout: GI50

Example compounds with recorded GI50:
Smiles text	GI50
CC(C)Oc1cc2c(cc1O)CC[C@@H]1[C@@H]2CC[C@]2(C)[C@@H](O)CC[C@@H]12	4.16 µM
COc1ccc(-n2c(SCc3cc(OC)c(OC)c(OC)c3)nc3ccc(C)cc3c2=O)c(OC)c1	3.16 µM
N[C@@H](Cc1c[nH]c2ccccc12)C(=O)NC1CCN(C(=O)c2c[nH]c3ccccc23)CC1	54.2 µM
C1CC[N-]CC1.C1CC[N-]CC1.C1CC[N-]CC1.C1CC[N-]CC1.[Cl][Rh][Cl]	2.17 µM
COc1ccc(-c2cc(-c3ccc(OC)c(OC)c3)nc(SCCCC(=O)NO)n2)cc1	1.18 µM

Continue with the compound presented below.
Lookup: GI50 of NC(=O)c1cnc(N[C@@H]2CCCC[C@@H]2N)nc1Nc1cccc(-n2nccn2)c1 on MDA-MB-468 breast?
Found: 3.27 µM

###

Tested on: MDA-MB-468 breast
Protocol text: NCI tumour cell line growth inhibition, 48 h
Readout: TGI

Smiles text	Readout value
CCCCn1c2cc(OCc3cn(-c4ccc(Cl)cc4)nn3)ccc2c2ccnc(C)c21	> 33.3 µM
C=C1[C@@H](C)[C@H]2[C@H](Cc3ccccc3)NC(=O)[C@]23OC(=O)/C=C/[C@H](O)CCC[C@@H](C)C/C=C/[C@H]3[C@@H]1O	> 100 µM
N#Cc1c(C(=O)c2ccccc2)cnn1-c1ccccc1	> 25 µM

Continue with the molecule presented below.
Lookup: What value of TGI has been reported for the following molecule? O=C(/C=C/c1cccnc1)NCCCCC1CCN(C(=O)c2ccccc2)CC1
Found: > 100 µM
